Consider the following compounds; for each one, report its IC50.
Target: HLA-B1501 (Homo sapiens, UniProt P01889, A329T/A93T/A95T/C349S/D201E/D98Y/E187L/E204Q/E69M/E70A/K202T/N87E/Q94N/R155S/R180W/S121R/S35A/S48A/V306I/V36M/Y140S/Y91S)
Assay: Competitive peptide binding assay, CIR-B1501
Conditions: HMy2.CIR-B1501 cells, reference Cy5-[…], class from inhibition at 5 and 15 μM, flow cytometry MFI; read-out: Binding affinity with HLA-B1501
Peptide text beside a SMILES is read from it.

COMPOUND: CC[C@H](C)[C@H](NC(=O)[C@H](C)NC(=O)CNC(=O)[C@@H](NC(=O)[C@H](Cc1ccc(O)cc1)NC(=O)[C@@H](NC(=O)[C@@H](N)CC(C)C)[C@@H](C)O)[C@@H](C)O)C(=O)N[C@@H](CCCCN)C(=O)N[C@@H](CC(C)C)C(=O)O [Epitope Y243] (H-LTYTGAIKL-OH; N-terminus and C-terminus assumed)
IC50: > 15 µM

Here is another compound to look at.
Prompt line: I am curious: what IC50 value has been reported for CC[C@H](C)[C@H](NC(=O)[C@H](CC(C)C)NC(=O)[C@@H](N)CCC(=O)O)C(=O)N[C@@H](CCCNC(=N)N)C(=O)N[C@@H](CCC(N)=O)C(=O)NCC(=O)N[C@H](C(=O)N[C@@H](CC(=O)O)C(=O)N[C@@H](Cc1ccc(O)cc1)C(=O)O)[C@@H](C)O [Epitope Y162] (H-ELIRQGTDY-OH; N-terminus and C-terminus assumed) ?
Response line: > 15 µM

====

Give pIC50 for every item shown.
Biological target: HLA-C0602 (Homo sapiens, UniProt P10321, A176E/A330V/C350S/L171W/L180W/L218V/M285V/M309V/M331V/N104K/P208H/Q277E/Q291P/R121W/S101N/S123Y/S297R/T329A/T363A/V319A/V328M)
Assay: Competitive peptide binding assay, CIR-C0602
pIC50: −log10 of the molar value. Peptide text beside a SMILES is read from it.

COMPOUND: CC[C@H](C)[C@H](NC(=O)[C@H](C)NC(=O)[C@H](C)NC(=O)[C@H](CC(N)=O)NC(=O)[C@H](CC(N)=O)NC(=O)[C@H](C)NC(=O)[C@@H]1CCCN1C(=O)[C@H](CC(N)=O)NC(=O)[C@H](CCCNC(=N)N)NC(=O)[C@@H](N)[C@@H](C)O)C(=O)O [Epitope M117] (H-TRNPANNAAI-OH; N-terminus and C-terminus assumed)
REPORTED_METRIC: pIC50
ENDPOINT_VALUE: > 5.30

Please report pIC50 for every entry that follows.
1. CC(C)C[C@H](NC(=O)[C@H](C)NC(=O)[C@@H](NC(=O)[C@@H](N)CC(C)C)[C@@H](C)O)C(=O)N[C@@H](CCCNC(=N)N)C(=O)N[C@@H](CC(C)C)C(=O)N[C@@H](CS)C(=O)N[C@@H](C)C(=O)N[C@@H](Cc1ccc(O)cc1)C(=O)O [Epitope M51] (H-LTALRLCAY-OH; N-terminus and C-terminus assumed)
2. CC[C@H](C)[C@H](NC(=O)[C@H](C)NC(=O)[C@H](CC(C)C)NC(=O)[C@@H](NC(=O)[C@@H](N)C(C)C)[C@@H](C)O)C(=O)N[C@@H](CC(C)C)C(=O)N[C@H](C(=O)N[C@@H](C)C(=O)N[C@@H](CC(C)C)C(=O)O)[C@@H](C)O [Epitope M3, VTLAILTAL] (H-VTLAILTAL-OH; N-terminus and C-terminus assumed)
3. CC[C@H](C)[C@H](NC(=O)[C@H](CCCNC(=N)N)NC(=O)[C@H](CC(C)C)NC(=O)[C@H](CCSC)NC(=O)[C@H](CC(N)=O)NC(=O)[C@@H]1CCCN1C(=O)[C@H](CCSC)NC(=O)[C@H](C)NC(=O)[C@@H](N)CCCNC(=N)N)C(=O)O [Epitope M30] (H-RAMPNMLRI-OH; N-terminus and C-terminus assumed)

Response line:
1. > 5.30
2. < 4.82
3. > 5.30

Attribution: paper PMC12133982
